- target: beta-lactamase class D OXA-48 (Klebsiella pneumoniae)
- Sequence (Q6XEC0 23-265 limits assumed): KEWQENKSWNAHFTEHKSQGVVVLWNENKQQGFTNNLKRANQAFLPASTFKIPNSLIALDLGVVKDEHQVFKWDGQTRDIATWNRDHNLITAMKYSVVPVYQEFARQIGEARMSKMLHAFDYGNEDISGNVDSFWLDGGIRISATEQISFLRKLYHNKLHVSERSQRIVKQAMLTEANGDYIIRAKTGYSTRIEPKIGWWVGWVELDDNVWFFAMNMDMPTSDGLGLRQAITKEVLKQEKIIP
- Assay type: biochemical
- condition.parameters: Meropenem 20.0 mg/L, second β-lactam 200.0 mg/L (10 times excess), replicate 1
For each entry below, report its Accuracy Replicate 1 value.
Only the number, expressed in %, is required.

Quick check: Accuracy Replicate 1 of CC1(C)S[C@@H]2[C@H](NC(=O)[C@H](C(=O)O)c3ccsc3)C(=O)N2[C@H]1C(=O)O ? 102

Fill in: Accuracy Replicate 1 of CC(C)(O/N=C(\C(=O)N[C@@H]1C(=O)N2C(C(=O)[O-])=C(C[n+]3ccccc3)CS[C@H]12)c1csc(N)n1)C(=O)O is ___ 102

Given the entry CO/N=C(\C(=O)N[C@@H]1C(=O)N2C(C(=O)O)=C(COC(N)=O)CS[C@H]12)c1ccco1 , report its measured Accuracy Replicate 1. 98

So what does the record say about Accuracy Replicate 1 for CC1(C)S[C@@H]2[C@H](NC(=O)[C@H](N)c3ccccc3)C(=O)N2[C@H]1C(=O)O ? 92

Dear colleague, I am looking for the recorded Accuracy Replicate 1 of the following compound: Cc1onc(-c2ccccc2)c1C(=O)N[C@@H]1C(=O)N2[C@@H]1SC(C)(C)[C@@H]2C(=O)O 98

Find the recorded Accuracy Replicate 1 belonging to CO/N=C(\C(=O)N[C@@H]1C(=O)N2C(C(=O)O)=C(COC(C)=O)CS[C@H]12)c1csc(N)n1 and report it. 93

Which measured Accuracy Replicate 1 value corresponds to Cn1nnnc1SCC1=C(C(=O)O)N2C(=O)[C@@H](NC(=O)[C@H](O)c3ccccc3)[C@H]2SC1 ? 97

Using the record for C[C@@H](O)[C@H]1C(=O)N2C(C(=O)O)=C(S[C@@H]3CN[C@H](C(=O)N(C)C)C3)[C@H](C)[C@H]12 , report its Accuracy Replicate 1. 103

Entry under review: CO/N=C(\C(=O)N[C@@H]1C(=O)N2C(C(=O)O)=C(CSc3nc(=O)c(O)nn3C)CS[C@H]12)c1csc(N)n1 . Reported Accuracy Replicate 1? 100

---

- target: beta-lactamase class D OXA-48 (Klebsiella pneumoniae)
- Type: biochemical
- condition.parameters: Meropenem 1.2 mg/L, second β-lactam 10.0 mg/L (8.4 times excess), replicate 5
- Text: The specificity (or selectivity) of the method according to an embodiment of the invention is defined as the ability of the method to measure the concentration of a carbapenem antibiotic (such as meropenem) in presence of an excess of another beta-lactam antibiotic (second beta-lactam) currently used in ICUs (see Table 4). […]
Give [Meropenem] Replicate 5 for every item shown.
Quick note: give the figure in mg/L, leave out the unit.

API: value(readout=[Meropenem] Replicate 5, system=beta-lactamase class D OXA-48 (Klebsiella pneumoniae)) for record CC1(C)S[C@@H]2[C@H](NC(=O)[C@H](N)c3ccccc3)C(=O)N2[C@H]1C(=O)O [Pentrexyl ®] 1.3

Give recorded [Meropenem] Replicate 5 with beta-lactamase class D OXA-48 (Klebsiella pneumoniae) for the following compound: C[C@@H](O)[C@H]1C(=O)N2C(C(=O)O)=C(S[C@@H]3CN[C@H](C(=O)N(C)C)C3)[C@H](C)[C@H]12 [Meropenem, meropenem] 1.1

Provide value of [Meropenem] Replicate 5 for this record tested with beta-lactamase class D OXA-48 (Klebsiella pneumoniae): CO/N=C(\C(=O)N[C@@H]1C(=O)N2C(C(=O)O)=C(CSc3nc(=O)c(O)nn3C)CS[C@H]12)c1csc(N)n1 [Ceftria ®] 1.3

Provide value of [Meropenem] Replicate 5 for this record tested with beta-lactamase class D OXA-48 (Klebsiella pneumoniae): CC1(C)S[C@@H]2[C@H](NC(=O)[C@H](C(=O)O)c3ccsc3)C(=O)N2[C@H]1C(=O)O [Ticarpen ®] 1.2

Requested read-out [Meropenem] Replicate 5, target or system beta-lactamase class D OXA-48 (Klebsiella pneumoniae), entry Cc1onc(-c2ccccc2)c1C(=O)N[C@@H]1C(=O)N2[C@@H]1SC(C)(C)[C@@H]2C(=O)O [Penstapho ®] 1.3

Hello, I am looking for reported [Meropenem] Replicate 5 with beta-lactamase class D OXA-48 (Klebsiella pneumoniae) for CO/N=C(\C(=O)N[C@@H]1C(=O)N2C(C(=O)O)=C(COC(N)=O)CS[C@H]12)c1ccco1 [Zinacef ®] . Could you help? 1.3
